# Assayed Target: HLA-A*02:01 (Homo sapiens, UniProt P04439, D140Y/D185E/D98H/E176V/E277Q/G131W/G231S/I119V/I121R/I166T/I218V/L300P/L318F/N151K/N90K/P208A/P217A/Q86G/Q94H/R138H/R169H/T345S)
# Experiment: MHC binding assay (UV-ligand exchange, beta2m ELISA, peptide exchange yield)
# Run Conditions: binding of HLA-class I restricted peptides to HLA-A*02:01, ranged by peptide exchange yield (UV-ligand exchange, β2m ELISA)
Quantity Name: Peptide exchange

{"Substance": "545 (LLADLLHNV; listed as Homo sapiens) [compound 545]", "Peptide exchange": "″+++″ (≥50% = +++)"}
{"Substance": "202 (ALLDQQGSRWTL; listed as Homo sapiens) [compound 202]", "Peptide exchange": "″+++″ (≥50% = +++)"}
{"Substance": "588 (SLLPLSHLV; listed as Homo sapiens) [compound 588]", "Peptide exchange": "″+++″ (≥50% = +++)"}
{"Substance": "429 (GLVNDLARV; listed as Homo sapiens) [compound 429]", "Peptide exchange": "″++″ (≥20% = ++)"}
{"Substance": "465 (QLCDLNAEL; listed as Homo sapiens) [compound 465]", "Peptide exchange": "″+++″ (≥50% = +++)"}
{"Substance": "456 (LLIGHLERV; listed as Homo sapiens) [compound 456]", "Peptide exchange": "″+++″ (≥50% = +++)"}

Now examine the next entry.
Query :: // query Peptide exchange value for entry 507 (KLIDDQDISISL; listed as Homo sapiens) [compound 507]
Result :: ″+++″ (≥50% = +++)
